Origin of values: patent US20240199623A1

Reported EC50 values for a set of molecules
molecular target: human wild type-CFTR (Homo sapiens, UniProt P13569); assay: Short-circuit current measurement; assay type: cell-based; parameters: expressed in transfected cells; settings: FRT cells expressing human wild type-CFTR; Forskolin 20 μM signal used as 100% activity; read-out: Short-circuit current measurement (EC50) Concentration range
Sequence (P13569 whole entry): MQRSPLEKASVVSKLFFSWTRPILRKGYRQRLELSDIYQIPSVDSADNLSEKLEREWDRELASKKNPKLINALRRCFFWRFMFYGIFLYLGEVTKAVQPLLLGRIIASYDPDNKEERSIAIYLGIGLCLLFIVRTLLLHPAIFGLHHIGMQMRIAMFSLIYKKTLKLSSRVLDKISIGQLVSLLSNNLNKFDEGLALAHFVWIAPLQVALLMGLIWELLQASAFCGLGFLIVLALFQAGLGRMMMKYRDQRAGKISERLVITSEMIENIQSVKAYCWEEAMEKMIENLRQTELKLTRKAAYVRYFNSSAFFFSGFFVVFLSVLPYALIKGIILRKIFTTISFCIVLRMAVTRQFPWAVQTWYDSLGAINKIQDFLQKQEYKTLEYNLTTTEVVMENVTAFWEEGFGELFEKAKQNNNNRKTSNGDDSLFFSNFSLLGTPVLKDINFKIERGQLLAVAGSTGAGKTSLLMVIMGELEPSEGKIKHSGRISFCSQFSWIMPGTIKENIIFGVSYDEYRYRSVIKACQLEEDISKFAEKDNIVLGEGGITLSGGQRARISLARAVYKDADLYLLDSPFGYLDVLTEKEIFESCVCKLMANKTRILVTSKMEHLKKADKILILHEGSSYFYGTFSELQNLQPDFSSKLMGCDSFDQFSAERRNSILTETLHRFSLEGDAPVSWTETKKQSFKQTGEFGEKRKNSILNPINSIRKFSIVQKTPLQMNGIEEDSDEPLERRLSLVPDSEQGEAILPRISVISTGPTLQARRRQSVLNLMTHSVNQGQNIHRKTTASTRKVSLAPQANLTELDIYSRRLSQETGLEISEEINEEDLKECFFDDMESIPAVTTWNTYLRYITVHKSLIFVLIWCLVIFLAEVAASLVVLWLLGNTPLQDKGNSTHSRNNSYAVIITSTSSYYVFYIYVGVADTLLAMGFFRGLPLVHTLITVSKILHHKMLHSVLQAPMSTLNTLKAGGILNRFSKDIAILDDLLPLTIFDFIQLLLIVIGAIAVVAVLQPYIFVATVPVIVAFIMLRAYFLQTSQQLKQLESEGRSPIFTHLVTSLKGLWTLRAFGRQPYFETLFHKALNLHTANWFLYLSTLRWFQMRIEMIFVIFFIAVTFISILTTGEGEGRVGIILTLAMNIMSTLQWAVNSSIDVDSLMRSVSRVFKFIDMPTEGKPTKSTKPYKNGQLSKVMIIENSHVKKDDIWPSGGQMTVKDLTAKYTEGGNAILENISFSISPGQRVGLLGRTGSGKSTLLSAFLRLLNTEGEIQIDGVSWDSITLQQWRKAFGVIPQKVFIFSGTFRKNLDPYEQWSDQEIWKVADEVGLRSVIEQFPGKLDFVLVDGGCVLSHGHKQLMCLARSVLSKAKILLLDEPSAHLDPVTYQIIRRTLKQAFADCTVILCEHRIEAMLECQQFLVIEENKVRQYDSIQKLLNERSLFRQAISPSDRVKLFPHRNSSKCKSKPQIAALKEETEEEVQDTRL
Measured endpoint: EC50

> print(dat)
                                    molecule  measured.endpoint          result
 1  COc1ccc(-c2ccnc3cc(C(=O)Nc4ccc(C(=O)O)cc4C)nn23)cc1OC [Compound 126]               EC50       ≥ 2000 nM
 2  COc1ccc(-c2ccnc3cc(C(=O)Nc4ccc(N5CCOCC5)cn4)nn23)cc1OC [Compound 205]               EC50        < 200 nM
 3  COC(=O)c1ccc(NC(=O)c2cc3nccc(-c4ccc(OC)c(OC)c4)n3n2)cc1 [Compound 11]               EC50        < 200 nM
 4  COc1ccc(-c2ccnc3cc(C(=O)Nc4ccc(N5CCCC5)cn4)nn23)cc1OC [Compound 289]               EC50        < 200 nM
 5  COc1ccc(-c2ccnc3cc(C(=O)Nc4ccc(C(=O)N5CCN(C)CC5)cc4Cl)nn23)cc1OC [Compound 137]               EC50  200 to 2000 nM
 6  COc1ccc(-c2ccnc3cc(C(=O)Nc4ccc(N5CCC(=O)CC5)cc4)nn23)cc1OC [Compound 285]               EC50        < 200 nM
 7  COc1ccc(-c2ccnc3cc(C(=O)Nc4ccc(N5CCCC5)cc4)nn23)cc1OC [Compound 277]               EC50        < 200 nM
 8  COc1ccc(-c2ccnc3cc(C(=O)Nc4ccc(OC(=O)[C@@H](NC(=O)OC(C)(C)C)C(C)C)cc4)nn23)cc1OC [Compound 200]               EC50        < 200 nM
 9  COc1ccc(-c2ccnc3cc(NC(=O)Nc4ccc(C(=O)N5CCOCC5)cc4)nn23)cc1OC [Compound 129]               EC50       ≥ 2000 nM
10  COC(=O)c1ccc(NC(=O)c2cc3nccc(-c4ccc(OC)c(OC)c4)n3n2)nc1 [Compound 31]               EC50        < 200 nM
11  COc1ccc(-c2ccnc3cc(C(=O)NC45CCC(C(=O)O)(CC4)CC5)nn23)cc1OC [Compound 149]               EC50       ≥ 2000 nM
12  COC(=O)c1ccc(NC(=O)c2cc3nccc(-c4ccc(OC)c(OC)c4)n3n2)cc1Cl [Compound 140]               EC50        < 200 nM
13  COc1ccc(-c2ccnc3cc(C(=O)Nc4ccc(NC(=O)OC(C)(C)C)cc4)nn23)cc1OC [Compound 256]               EC50        < 200 nM
14  CCOC(=O)N1CCN(C(=O)c2cc3nccc(-c4ccc(OC)c(OC)c4)n3n2)CC1 [Compound 86]               EC50       ≥ 2000 nM
15  COc1ccc(-c2ccnc3cc(C(=O)Nc4ccc(C(=O)N5CCOCC5)cc4C)nn23)cc1OC [Compound 127]               EC50  200 to 2000 nM
16  COC(=O)C12CC(NC(=O)c3cc4nccc(-c5ccc(OC)c(OC)c5)n4n3)(C1)C2 [Compound 36]               EC50       ≥ 2000 nM

====

target: human wild type-CFTR (Homo sapiens); assay: Cell-based YFP assay; parameters: expressed in transfected cells; host or cells: CHO-K1 (Chinese hamster ovary); settings: CHO-K1 cells expressing human wild type-CFTR and YFP-H148Q/I152L; forskolin 20 μM = 100% activity; read-out: Cell-based YFP Assay (EC50) Concentration Range
Reported EC50 values for a set of molecules
Measured endpoint: EC50

> print(dat)
                                 smiles.text  measured.endpoint       result
 1  COc1ccc(-c2ccnc3cc(C(=O)N4CCN(C(=O)c5ccccc5)CC4)nn23)cc1OC               EC50     < 0.2 µM
 2  COc1ccc(-c2ccnc3cc(C(=O)Nc4ccc(C(=O)NCCCN5CCCC5)cc4)nn23)cc1OC               EC50       ≥ 2 µM
 3  CCOc1ccc(NC(=O)c2cc3nccc(-c4ccc(Cl)cc4F)n3n2)cc1               EC50       ≥ 2 µM
 4  COc1ccc(-c2ccnc3cc(C(=O)N[C@H]4CC[C@@H](C(=O)N5CCN(C(=O)OC(C)(C)C)CC5)CC4)nn23)cc1OC               EC50  0.2 to 2 µM
 5  CCOc1ccc(NC(=O)Nc2cc3nccc(-c4ccc(OC)c(OC)c4)n3n2)cc1               EC50  0.2 to 2 µM
 6  COc1ccc(-c2ccnc3cc(C(=O)NCc4ccc(N5CCN(C)CC5)cc4)nn23)cc1OC               EC50       ≥ 2 µM
 7  COc1ccc(-c2ccnc3cc(C(=O)N4CCc5ccc(C(=O)N6CCN(C)CC6)cc54)nn23)cc1OC               EC50       ≥ 2 µM
 8  COc1ccc(-c2ccnc3cc(C(=O)N[C@H]4CC[C@H](C(=O)N5CCC(N6CCOCC6)CC5)CC4)nn23)cc1OC               EC50       ≥ 2 µM
 9  COc1ccc(-c2ccnc3cc(C(=O)N4CCN(C(C)C)CC4)nn23)cc1OC               EC50       ≥ 2 µM
10  COC(=O)C12CC(NC(=O)c3cc4nccc(-c5ccc(OC)c(OC)c5)n4n3)(C1)C2               EC50  0.2 to 2 µM
11  COc1ccc(-c2ccnc3cc(C(=O)Nc4ccc(C(=O)OCCN5CCN(C(=O)OC(C)(C)C)CC5)cc4)nn23)cc1OC               EC50     < 0.2 µM
12  COC(=O)[C@H](CCSC)NC(=O)c1ccc(NC(=O)c2cc3nccc(-c4ccc(OC)c(OC)c4)n3n2)cc1               EC50     < 0.2 µM
13  COc1ccc(-c2ccnc3cc(C(=O)N4CCN[C@@H](C(C)C)C4)nn23)cc1OC               EC50  0.2 to 2 µM
14  COc1ccc(-c2ccnc3cc(C(=O)N4CCN(C(=O)c5ccc(Cl)cc5)[C@@H](C)C4)nn23)cc1OC               EC50  0.2 to 2 µM
15  COc1ccc(-c2ccnc3cc(C(=O)Nc4ccc(C(=O)NCCCN5CCN(C)CC5)cc4)nn23)cc1OC               EC50       ≥ 2 µM

====

Biological target: human wild type-CFTR (Homo sapiens, UniProt P13569)
Experiment: Cell-based YFP assay
Design: expressed in transfected cells; host or cells: CHO-K1 (Chinese hamster ovary)
Settings: CHO-K1 cells expressing human wild type-CFTR and YFP-H148Q/I152L; forskolin 20 μM = 100% activity; read-out: Cell-based YFP Assay (EC50) Concentration Range
Experimental: Forskolin (Tocris cat. #1099), Dimethyl sulfoxide (Sigma cat. #D4540), FLUO star Omega microplate reader (BMG Labtech, Ortenberg, Germany), MARS Data Analysis Software (BMG Labtech), GraphPad Prism 5 (GraphPad Software, Inc.) Chinese hamster ovary (CHO-K1) cells expressing human wild type-CFTR and halide sensor YFP-H148Q/I152L were constructed and grown in Dulbecco's modified Eagle's medium (DMEM) supplemented with 10% FBS, 2 mM glutamine, 100 units/ml penicillin and 100 μg/ml streptomycin. […]
pEC50: −log10 of the molar value.
Reported pEC50 values for a set of compounds
Measured endpoint: pEC50

> print(dat)
                                    compound  measured.endpoint        result
 1  COc1ccc(-c2ccnc3cc(C(=O)Nc4ccc(N5CCCC5)cn4)nn23)cc1OC              pEC50        > 6.70
 2  COc1ccc(-c2ccnc3cc(C(=O)Nc4ccc(C(=O)N5CCC(N6CCOCC6)CC5)cc4F)nn23)cc1OC              pEC50        > 6.70
 3  COc1ccc(-c2ccnc3cc(C(=O)N4CCc5ccc(C(=O)N6CCOCC6)cc54)nn23)cc1OC              pEC50  5.70 to 6.70
 4  COc1ccc(-c2ccnc3cc(C(=O)Nc4ccc(C(=O)N5CCN(C)CC5)c(OC)c4)nn23)cc1OC              pEC50        ≤ 5.70
 5  COc1ccc(-c2ccnc3cc(C(=O)Nc4ccc(N5CCOCC5)cn4)nn23)cc1OC              pEC50        > 6.70
 6  COc1ccc(-c2ccnc3cc(C(=O)Nc4ccc(C(=O)N[C@@H](CO)C(=O)O)cc4)nn23)cc1OC              pEC50        ≤ 5.70
 7  COC(=O)[C@H](CC(C)C)NC(=O)c1ccc(NC(=O)c2cc3nccc(-c4ccc(OC)c(OC)c4)n3n2)cc1              pEC50        > 6.70
 8  COc1ccc(-c2ccnc3cc(C(=O)N4C[C@H](C)N(C(=O)c5ccccc5)C[C@@H]4C)nn23)cc1OC              pEC50        > 6.70
 9  COC(=O)c1ccc(CNC(=O)c2cc3nccc(-c4ccc(OC)c(OC)c4)n3n2)cc1              pEC50  5.70 to 6.70
10  COc1ccc(-c2ccnc3cc(C(=O)NC4CCC(N(C)C)CC4)nn23)cc1OC (stereo not drawn)              pEC50        ≤ 5.70
11  COc1ccc(-c2ccnc3cc(C(=O)Nc4ccc(O)cc4)nn23)cc1OC              pEC50        > 6.70
12  COc1ccc(-c2ccnc3cc(C(=O)Nc4ccc(C(=O)N5CCOCC5)c(C)c4)nn23)cc1OC              pEC50        ≤ 5.70
13  COc1ccc(-c2ccnc3cc(C(=O)N4CCN(C(=O)c5ccc(F)cc5)[C@@H](C)C4)nn23)cc1OC              pEC50        > 6.70
14  COc1ccc(-c2ccnc3cc(C(=O)Nc4ccc(C(=O)N5CCOCC5)cc4F)nn23)cc1OC              pEC50        > 6.70
15  COc1ccc(-c2ccnc3cc(C(=O)N4CCCc5cc(C(=O)N6CCN(C)CC6)ccc54)nn23)cc1OC              pEC50        ≤ 5.70
